As shown below, each of these compounds has a reported growth inhibition value.
Test: NCI Yeast Anticancer Drug Screen. Data for the mgt1 strain (AID 153)
Details: S. cerevisiae mgt1 mutant growth inhibition; at 3.7 µM; stronger effect = higher value
Compounds without any hit were thinned out: in the full panel of roughly 79,000, 15% have a hit.
I only need the number, in %, no unit after it.

# count of solved cases: 3
COC1=C(OC)C(=O)C(Sc2ccc3ccccc3c2)=CC1=O    -47
CCc1ccc2c(c1)N(CC(C)CN(C)C)c1ccccc1S2 (configuration not stated)    -4
O=C(/C=C\c1cccc(C(F)(F)F)c1)c1ccccc1    -1

Now for the compound whose growth inhibition we want.
# compound Nc1n[n+]([O-])c2ccc(Cl)cc2[n+]1[O-] ; its growth inhibition = 27

###

Reported growth inhibition values are given for each entry in this list.
Test: NCI Yeast Anticancer Drug Screen. Data for the rad14 strain (AID 159);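 note: 0% = growth of vehicle-treated control cultures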
Settings: S. cerevisiae rad14 strain growth inhibition; at 3.7 µM; stronger effect = higher value
About 79,000 compounds went through this panel and 15% of them were active in at least one assay; those are over-represented in the sample as a whole.
Expressed in %, but write only the number.

Cn1c(=O)c2c(nc(N)n2C2OC(CO)C(O)C2O)n(C)c1=O (stereo unspecified)    -4
CCn1c(O)c(C=Nc2ccccc2)s/c1=N/Nc1nc(-c2ccccc2)cs1    6

response.value for NC1=NNC2(C(N)=N1)c1ccccc1-c1ccccc12 (field: growth inhibition) = -22

Given item CC1CC[C@]2(C(=O)O)CCC3(C)C(=CC(=O)C4[C@@]5(C)CCC(=O)C(C)(C)C5CC[C@]43C)[C@@H]2[C@H]1C (stereo partly specified) , the value recorded as its growth inhibition is -13

Lab note: measured growth inhibition of CSc1nnc(SC)nn1 was 0

Measured growth inhibition, Oc1ccc2ccccc2c1CCc1c(O)ccc2ccccc12 : 8

###

Experiment: NCI Yeast Anticancer Drug Screen. Data for the CLN2oe strain (AID 163);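 note: 0% = growth of vehicle-only control cultures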
Conditions: S. cerevisiae CLN2oe strain, at 100.0 µM, stronger effect = higher value
Compounds without any hit were thinned out: in the full panel of roughly 79,000, 15% have a hit.
Kindly return t if reported growth inhibition is no lower than 80%; return f if it is lower.

CN(CCN(C)Cc1ccccc1)Cc1ccccc1    f
CC(=O)Nc1ccc2c(c1)Cc1cc(N=C3C=CC(=O)O3)ccc1-2    t
CN(C)c1ccc(N=Nc2ccncc2)cc1    f
CC[N+]1(C)CCC(O)(c2ccc(OC)cc2)C(C(=O)c2ccc(OC)cc2)C1 (stereo unspecified)    f
CCCCOC(=O)Nc1ccc(C)c(NC(=O)OCCCC)c1    f
Oc1ccc(O)c(Cc2ccccc2)c1    t

Now consider the entry below.
Exercise: Given the entry CN(C)CCNC(=O)c1cccc2c1Oc1c(cccc1[N+](=O)[O-])O2 , answer whether its growth inhibition meets or surpasses 80%.
Solution: f

###

Assay: NCI Yeast Anticancer Drug Screen. Data for the mec2-1 strain (AID 157)
Conditions: S. cerevisiae mec2-1 strain, at 5.0 µM (retest, dose inferred, filed as 0.5), stronger effect = higher value
The panel holds about 79,000 compounds, 15% with a hit somewhere; the sample as a whole holds those more often.
outcome_measure: growth inhibition (%)
Answer in %, number only, no unit symbol.

Study these solved cases before continuing.
CC1OC(O[C@H]2/C=C/C=C/C=C/C=C/C=C/C=C/C=C/[C@H](C)[C@@H](O)[C@@H](C)[C@H](C)OC(=O)C[C@H](O)C[C@H](O)CC[C@@H](O)[C@H](O)C[C@H](O)C[C@]3(O)C[C@H](O)[C@@H](C(=O)O)[C@H](C2)O3)C(O)C(N)C1O (stereo partly drawn)    32
COc1cc(/C=C2\CCC/C(=C\c3ccc(O)c(OC)c3)C2=O)ccc1O    4

For this molecule ( COC(=O)Nc1cn2ccc(C(Cl)=C(Cl)Cl)cc2n1 ), measured growth inhibition is 17

Lab book: growth inhibition of O=[N+]([O-])/C=C/c1cc(Cl)c(/C=C/[N+](=O)[O-])cc1Cl noted as 18

Entry CCOC(=O)C1N=[N+](c2ccccc2)C(=O)/C1=C\n1c(=S)[nH]c2ccc([N+](=O)[O-])cc21 (stereo not drawn) — recorded growth inhibition = 13

Memo: CCCC(=O)Oc1c(C)cc([N+](=O)[O-])cc1[N+](=O)[O-] , reported growth inhibition: 33

GET /value?item= COc1cc2cc3c4cc(OC)c(OC)cc4cc[n+]3c(C)c2cc1OC &field=growth inhibition returns 73

The molecule COC(=O)CC1CCc2c(ccc3ccccc23)C1(C)C(=O)OC (stereo not drawn) showed growth inhibition equal to -5
